MEASURED_TARGET: Nav 1.5 (Homo sapiens (Human), UniProt Q14524)
Sequence (Q14524 whole entry): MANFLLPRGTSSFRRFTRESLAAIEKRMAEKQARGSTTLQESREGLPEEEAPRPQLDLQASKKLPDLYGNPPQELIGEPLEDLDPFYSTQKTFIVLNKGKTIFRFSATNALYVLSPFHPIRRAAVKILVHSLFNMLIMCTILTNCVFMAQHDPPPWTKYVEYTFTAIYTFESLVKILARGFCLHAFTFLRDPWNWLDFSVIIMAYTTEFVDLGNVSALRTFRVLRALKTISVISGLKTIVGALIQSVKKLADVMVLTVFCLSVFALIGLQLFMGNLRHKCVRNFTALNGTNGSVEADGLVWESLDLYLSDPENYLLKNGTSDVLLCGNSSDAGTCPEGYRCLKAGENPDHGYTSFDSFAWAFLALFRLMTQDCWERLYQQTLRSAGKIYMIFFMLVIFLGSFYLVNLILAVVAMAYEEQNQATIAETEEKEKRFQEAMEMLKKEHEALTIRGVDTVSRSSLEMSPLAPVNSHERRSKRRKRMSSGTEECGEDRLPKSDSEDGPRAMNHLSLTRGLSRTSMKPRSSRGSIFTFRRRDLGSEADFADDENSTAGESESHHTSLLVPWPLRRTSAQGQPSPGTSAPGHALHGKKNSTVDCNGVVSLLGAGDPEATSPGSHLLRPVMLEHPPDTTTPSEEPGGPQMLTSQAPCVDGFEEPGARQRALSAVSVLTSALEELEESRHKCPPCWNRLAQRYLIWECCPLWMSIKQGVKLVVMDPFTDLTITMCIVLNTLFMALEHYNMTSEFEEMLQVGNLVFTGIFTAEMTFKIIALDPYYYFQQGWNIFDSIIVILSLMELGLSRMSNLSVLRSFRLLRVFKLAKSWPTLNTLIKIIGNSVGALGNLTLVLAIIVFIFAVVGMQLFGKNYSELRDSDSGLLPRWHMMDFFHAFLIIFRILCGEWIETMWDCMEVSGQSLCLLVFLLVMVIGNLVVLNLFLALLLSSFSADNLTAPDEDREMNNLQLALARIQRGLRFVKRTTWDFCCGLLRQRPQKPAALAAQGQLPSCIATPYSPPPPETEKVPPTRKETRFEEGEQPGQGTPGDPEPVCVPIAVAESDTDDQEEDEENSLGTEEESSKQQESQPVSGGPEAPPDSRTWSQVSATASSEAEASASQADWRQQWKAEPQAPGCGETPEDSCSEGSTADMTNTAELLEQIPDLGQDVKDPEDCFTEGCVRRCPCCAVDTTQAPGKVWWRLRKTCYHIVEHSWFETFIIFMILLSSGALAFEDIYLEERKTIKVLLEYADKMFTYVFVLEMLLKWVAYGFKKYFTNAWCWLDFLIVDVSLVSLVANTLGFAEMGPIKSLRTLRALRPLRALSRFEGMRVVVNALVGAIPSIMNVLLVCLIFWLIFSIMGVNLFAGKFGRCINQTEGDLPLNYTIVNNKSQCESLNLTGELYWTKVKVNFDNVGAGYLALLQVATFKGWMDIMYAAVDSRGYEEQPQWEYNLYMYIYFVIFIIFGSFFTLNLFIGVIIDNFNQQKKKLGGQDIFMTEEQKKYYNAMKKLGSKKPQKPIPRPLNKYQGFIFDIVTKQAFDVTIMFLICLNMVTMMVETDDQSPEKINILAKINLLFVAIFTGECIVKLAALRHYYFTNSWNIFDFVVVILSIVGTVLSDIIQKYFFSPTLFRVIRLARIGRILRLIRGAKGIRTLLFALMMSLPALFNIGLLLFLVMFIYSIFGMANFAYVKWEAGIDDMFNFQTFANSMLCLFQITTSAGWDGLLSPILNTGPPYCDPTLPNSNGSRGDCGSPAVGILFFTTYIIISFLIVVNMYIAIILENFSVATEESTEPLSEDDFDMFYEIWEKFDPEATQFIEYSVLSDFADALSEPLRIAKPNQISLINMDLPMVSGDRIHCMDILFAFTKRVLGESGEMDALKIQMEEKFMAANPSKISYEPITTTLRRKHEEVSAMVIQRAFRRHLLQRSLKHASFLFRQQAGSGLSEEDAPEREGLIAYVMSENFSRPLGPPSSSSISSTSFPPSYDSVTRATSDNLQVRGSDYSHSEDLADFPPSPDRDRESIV
ASSAY_NAME: Inhibition of sodium channels, Red Membrane Potential Dye FLIPR assay, veratridine depolarization
Assay type: cell-based
PROTOCOL_CONDITIONS: HEK-293 cells overexpressing the channel; read-out: Nav1.5 IC50
READOUT_NAME: IC50 (nM)
Give the number; nM is assumed, so skip it.

// known answers, use as guide
COMPOUND: O=S(=O)(Nc1cccnn1)c1ccc2c(c1)OCC[C@@H]2c1ccc(C(F)(F)F)cc1CCC(F)F (racemic)
UNIT_STRING: nM
IC50: 635

COMPOUND: COCCOc1cc(C(F)(F)F)ccc1[C@H]1CCOc2cc(S(=O)(=O)Nc3ncccn3)ccc21
UNIT_STRING: nM
IC50: 2640

COMPOUND: COCCCc1cc(C(F)(F)F)ccc1[C@H]1CCOc2cc(S(=O)(=O)Nc3cccc(F)n3)ccc21 (racemic)
UNIT_STRING: nM
IC50: 2410

Turning now to a further record.
Short answer please: IC50, Nav 1.5 (Homo sapiens (Human), UniProt Q14524), entry COCCCCc1cc(C(F)(F)F)ccc1[C@H]1CCOc2cc(S(=O)(=O)Nc3cccnn3)ccc21 (racemic)
1430
